experiment: Tested for cytotoxicity by using brine shrimp lethality test; assay type: organism-based; details: artemia, in vivo
Quick reference for log10 of LC50 among some molecules
ENDPOINT: log10 of LC50 (log10 of the value in mg/L)

[
  {
    "MOLECULE": "CCCCCC[C@H](O)CCC[C@@H](O)[C@H]1CC[C@H]([C@H]2CC[C@H]([C@H](O)CCCCCCCCC[C@@H](C)CCC3=C[C@H](C)OC3=O)O2)O1",
    "MEAS_VALUE": -2.31
  },
  {
    "MOLECULE": "CCCCCCCCCC[C@@H](C(C)=O)[C@H]1CC[C@H]([C@H]2CC[C@H]([C@@H](CCCC[C@H](CCCC[C@@H](C)CCC3=C[C@H](C)OC3=O)C(C)=O)C(C)=O)O2)O1",
    "MEAS_VALUE": -2.24
  },
  {
    "MOLECULE": "CCCCCCCCCC[C@@H](O)[C@H]1CC[C@H]([C@H]2CC[C@H]([C@H](O)CCCCCCCCC[C@@H](C)CCC3=C[C@H](C)OC3=O)O2)O1",
    "MEAS_VALUE": 3.66
  },
  {
    "MOLECULE": "COc1cccc2c1C(=O)c1c(O)c3c(c(O)c1C2=O)C[C@@](O)(C(=O)CO)C[C@@H]3O[C@H]1C[C@H](N)[C@H](O)[C@H](C)O1 [DOXORUBICIN]",
    "MEAS_VALUE": -0.59
  },
  {
    "MOLECULE": "CCCCCCCCCC[C@@H](O)[C@H]1CC[C@H]([C@H]2CC[C@H]([C@H](O)CCCCCCCCCC[C@H](O)CC3=C[C@H](C)OC3=O)O2)O1",
    "MEAS_VALUE": -1.59
  }
]
